# Test system: UACC-62 melanoma
# PROCEDURE SUMMARY: NCI tumour cell line growth inhibition, 48 h; in the data active = GI50 below about 0.43 µM; inactive = the rest
Possible outcomes: yes for active, no for inactive

COMPOUND | ASSAYED TARGET | CLASS NAME
O=C(O)CCCc1ccccc1 | UACC-62 melanoma | no
CC(=O)OCC(CC[CH2][Sn]([Cl])([Cl])[c]1ccccc1)OC(C)=O (stereo unspecified) | UACC-62 melanoma | no
COc1cc(C(=O)/C=C/c2c(C(F)(F)F)nc3ccccn23)cc(OC)c1OC | UACC-62 melanoma | no
COc1ccc(-c2c3c(N)c4c(nc3nc3c2c(C)nn3-c2ccccc2)CCCC4)cc1 | UACC-62 melanoma | no
N#Cc1c(NC(=O)c2ccccc2F)sc2c1CCCC2 | UACC-62 melanoma | no
[Cl][Cu][Cl] | UACC-62 melanoma | no
c1ccc(C2CCCCC2)c(OCCCCCN2CCNCC2)c1 | UACC-62 melanoma | no
CSC1=Nc2c(c(C)c(-c3ccccc3)n2COC(CO)CO)C2=NC(=O)CN12 | UACC-62 melanoma | no
Cc1ccc(-n2c(-c3cc4c([nH]c5ccccc54)c(-c4cccc(O)c4)n3)n[nH]c2=S)cc1 | UACC-62 melanoma | no
COc1ccc(-c2[nH]c3ccccc3c2/C=C(\C#N)S(=O)(=O)c2ccccc2)cc1 | UACC-62 melanoma | no
CC1CCN(CCOc2ccc(CNc3ccc4nc(CCC5CCCCC5)[nH]c4c3)cc2)CC1 | UACC-62 melanoma | no
COC1=C(OC)[C@]2(OC)c3c(O)c(OC)c4c(c3O[C@@]23O[C@@H](c2ccccc2)CC=C3C1=O)[C@@H](OC)C[C@H](c1ccccc1)O4 | UACC-62 melanoma | no
C[C@@H](NC(=O)c1ccc(F)cc1)c1ccc2c(c1)CCN2C(=O)C1CCOCC1 | UACC-62 melanoma | no
C/C(=N\NC(=S)N1CCN(c2ccccn2)CC1)c1ncccn1 | UACC-62 melanoma | yes
N#C/C(=C\c1cc2ccc(N3CCC3)cc2oc1=O)C(=O)N(CC(=O)O)CC(=O)O | UACC-62 melanoma | no
N#CC1C(N)=NNC12Nc1ccccc1S2 (stereo unspecified) | UACC-62 melanoma | no
Nc1nc2ccccc2c2c1S(=O)(=O)c1ccc(Cl)cc1C2=O | UACC-62 melanoma | no
O=C1/C(=C/c2ccccc2O)N=C(c2ccccc2)N1c1cc(C(F)(F)F)ccc1Cl | UACC-62 melanoma | no
CC(C)N(Cc1ccc(F)cc1)c1ccc(CO)c(Cl)c1 | UACC-62 melanoma | yes
c1ccc2c(CNCCN3CCNCC3)c3ccccc3c(CNCCN3CCNCC3)c2c1 | UACC-62 melanoma | no
O=S(=O)(O)c1ccc2cc3nn(-c4ccc(/C=C/c5ccc(-n6nc7cc8ccc(S(=O)(=O)O)cc8cc7n6)cc5S(=O)(=O)O)c(S(=O)(=O)O)c4)nc3cc2c1 | UACC-62 melanoma | no
